- System: KM12 colon
- method_description: NCI tumour cell line growth inhibition, 48 h
Assign satisfied whenever TGI does not fall below 4 µM; assign not satisfied whenever it does.

# compound, system_under_test, label_value
records = [
    ("Cc1ccc(C2=Nc3c(N)nc(N)nc3NC(c3cccc(Nc4ccnc5cc(C(F)(F)F)ccc45)c3)C2)cc1 (configuration not stated)", "KM12 colon", "not satisfied"),
    ("COc1cccc2c1O/C(=C\\c1ncc([N+](=O)[O-])n1C)C2=O", "KM12 colon", "not satisfied"),
    ("COc1ccc(/C=C2\\CCC(CN3CCOCC3)C2=O)cc1 (configuration not stated)", "KM12 colon", "satisfied"),
    ("C=C=C(Sc1ccccc1)C(C)(C)O", "KM12 colon", "satisfied"),
    ("Cn1ccc2c1SSSSS2", "KM12 colon", "satisfied"),
    ("COc1cc(S(=O)(=O)Nc2nc(-c3ccc(N4C(=O)/C(=C\\c5cccs5)N=C4c4ccccc4)cc3)cs2)ccc1Cl", "KM12 colon", "satisfied"),
    ("Cc1[nH]c(=O)nc2nc3ccc(Cl)cc3c(N(CCO)CCO)c12", "KM12 colon", "satisfied"),
    ("COc1ccc(-c2cc(=O)c3c(O)cc(O)cc3o2)cc1OC", "KM12 colon", "satisfied"),
    ("CC(=O)Nc1ccc(C2C(C(=O)Nc3ccccc3)=C(C)NC(C)=C2C(=O)Nc2ccccc2)cc1", "KM12 colon", "satisfied"),
    ("CN(C)CC/C(=N\\Nc1ccc(Cl)cc1)c1ccccc1", "KM12 colon", "not satisfied"),
    ("COc1cc(-c2nn(-c3cccc(NC(=O)Nc4cccc(C(F)(F)F)c4)c3)cc2-c2ccncc2)ccc1Cl", "KM12 colon", "not satisfied"),
    ("O=c1ncc(I)cn1C1CC(O)C(CO)O1 (configuration not stated)", "KM12 colon", "satisfied"),
    ("O=C(CN(/C=C/C(=O)C(F)(F)F)c1ccc(Cl)cc1)c1ccc(F)cc1", "KM12 colon", "satisfied"),
    ("COc1ccc(/C=C/C2C(C#N)=C(N)OC3=C2C(=O)CCC3)cc1 (configuration not stated)", "KM12 colon", "satisfied"),
    ("Cc1c(C(=O)O)n2c(C)nnc2c2ccccc12", "KM12 colon", "satisfied"),
    ("COc1ccc(C2C=C(c3ccc(OC)c(OC)c3)N=C3SC=CN32)c(Br)c1 (configuration not stated)", "KM12 colon", "not satisfied"),
    ("C=[CH][Sn]([CH]=C)([S]c1cccc2cccnc12)[S]c1cccc2cccnc12", "KM12 colon", "not satisfied"),
    ("COc1ccc(C2SC(N)=Nc3c2c(C)nn3C(=O)Cc2ccccc2)cc1 (configuration not stated)", "KM12 colon", "satisfied"),
    ("[2H]c1nc(C)nc([2H])c1-c1cc(NC[C@@H](C)c2cccc3c(C(=O)NC)ccnc23)ncn1", "KM12 colon", "satisfied"),
    ("CCC(N)(C(=O)O)C(C)C (configuration not stated)", "KM12 colon", "satisfied"),
    ("O=C(NC(=S)Nc1ccc2c(c1)Sc1ccccc1O2)c1ccccc1", "KM12 colon", "satisfied"),
]

* * *

- Test system: SNB-19 CNS
- method_description: NCI tumour cell line growth inhibition, 48 h
The following compounds are shown together with reported GI50 values.

# compound, GI50
measured = [
    ("Cc1oc2c(C(=O)N/N=C\\c3ccc(O)cc3O)c[nH]c2c1C", "1.32 µM"),
    ("CC(C)N(C(C)C)[PH+]1O[PH+](N(C(C)C)C(C)C)O[PH+](N(C(C)C)C(C)C)O[PH+](N(C(C)C)C(C)C)O1.[C-]#[O+].[C-]#[O+].[C-]#[O+].[C-]#[O+].[C-]#[O+].[C-]#[O+].[C-]#[O+].[C-]#[O+].[Mo].[Mo] (centres undefined)", "> 100 µM"),
    ("COc1ccc(/C=C/C2C(C#N)=C(N)OC3=C2C(=O)CCC3)cc1 (centres undefined)", "19.8 µM"),
    ("COc1cc(/C=C2\\C(=O)Nc3ccccc32)cc(OC)c1O", "4.45 µM"),
    ("O=c1ccccc(-c2ccc(Br)cc2)c1O", "0.459 µM"),
    ("C[CH2][Pb]([CH2]C)([CH2]C)[O]C(=O)COC", "1.97 µM"),
    ("Nc1c(C(=O)Nc2cccc(C(F)(F)F)c2)sc2nc3c(cc12)C(O)CCC3 (centres undefined)", "14.4 µM"),
    ("CCCN1C/C(=C\\c2ccc(O)c(OC)c2)C(=O)/C(=C/c2ccc(O)c(OC)c2)C1", "> 100 µM"),
    ("O=c1ncc(I)cn1C1CC(O)C(CO)O1 (centres undefined)", "> 3250 µM"),
]

* * *

- System: A549 NSCLC
- method_description: NCI tumour cell line growth inhibition, 48 h

# compound, TGI
data = [
    ("c1ccc(CC(Cc2ccccc2)C2=NCCCN2)cc1", "> 100 µM"),
    ("O=c1c2ccccc2n2c(-c3ccc(O)cc3)nnc2n1-c1ccccc1", "38.6 µM"),
    ("NNC(=O)c1ccccc1Nc1nc(-c2cccs2)nc2ccc(Br)cc12", "> 100 µM"),
    ("CCOc1ccc(NC(=O)/C(=C\\c2ccc(C)cc2)C(C)=O)cc1", "> 100 µM"),
    ("COc1cc2nn(-c3ccccc3)nc2c2nonc12", "> 100 µM"),
    ("COC(=O)c1cnc(Cl)c([N+](=O)[O-])c1", "41.6 µM"),
    ("CC(=O)Nc1ccc(-c2nnc(SCC(=O)Nc3ccc(Cl)cc3Cl)o2)cc1", "> 100 µM"),
    ("COC1=CC(=O)c2c(cc(COP(N)(=O)N(CCBr)CCBr)n2C)C1=O (stereo unspecified)", "1.71 µM"),
    ("ONCCCn1cnc2c(NC3CC3)ncnc21", "> 100 µM"),
    ("COC(=O)[C@@]12CN(C)[C@@H](C(C)(C)C)N1C(=O)OC2c1ccccc1 (stereo partly specified)", "> 100 µM"),
    ("C[CH2][Sn]([CH2]C)([O]C(=O)c1c(F)cccc1F)[O][Sn]([CH2]C)([CH2]C)[O]C(=O)c1c(F)cccc1F", "> 100 µM"),
]

* * *

- Tested on: HS 578T breast
- method_description: NCI tumour cell line growth inhibition, 48 h
The following compounds are shown together with reported GI50 values.

# compound, GI50
measured = [
    ("COc1ccc(C(=S)N(C)NC(=O)CC(=O)NN(C)C(=S)c2ccc(OC)cc2)cc1", "24.4 µM"),
    ("COC(=O)/C=C1/SC(=Nc2ccc(F)cc2)N(CCc2c[nH]c3ccc(O)cc23)C1=O", "4.28 µM"),
    ("C[CH2][Pb]([CH2]C)([CH2]C)[O]C(=O)COC", "0.517 µM"),
    ("CC1(C)CC[C@]2(C(=O)Nc3ccccn3)CC[C@]3(C)C(=CC[C@@H]4[C@@]5(C)C/C(=C/c6ccncc6)C(=O)C(C)(C)[C@@H]5CC[C@]43C)[C@@H]2C1", "2.96 µM"),
    ("[2H]c1nc(C)nc([2H])c1-c1cc(NC[C@@H](C)c2cccc3c(C(=O)NC)ccnc23)ncn1", "> 100 µM"),
    ("O=C(CN(/C=C/C(=O)C(F)(F)F)c1ccc(Cl)cc1)c1ccc(F)cc1", "4.95 µM"),
    ("O=C(Nc1ccc(Cl)cc1)Nc1ccc(Cl)c(C(F)(F)F)c1", "2.68 µM"),
    ("O=c1ncc(I)cn1C1CC(O)C(CO)O1 (centres undefined)", "> 3250 µM"),
    ("Cn1cc(-c2csc(-c3c[nH]c4ccccc34)n2)c2cnccc21", "2.21 µM"),
]

* * *

- System: SN12C renal
- method_description: NCI tumour cell line growth inhibition, 48 h; in the data active = GI50 below about 0.43 µM; inactive = the rest
Classes used: yes (1) (active), no (0) (inactive)

# compound, label_value
rows = [
    ("CCc1ccc(C(=O)/C=C/C23c4ccccc4C(c4ccccc42)C2C(=O)NC(=O)C23)cc1 (centres undefined)", "no (0)"),
    ("O=C(OCC1OC(n2cc(C(F)(F)F)c(=O)[nH]c2=O)CC1OC(=O)c1ccc([N+](=O)[O-])cc1)c1ccc([N+](=O)[O-])cc1 (centres undefined)", "no (0)"),
    ("COc1ccc2c(c1OC)-c1c(c3ccc([N+](=O)[O-])cc3c(=O)n1CCCN)C2=O", "no (0)"),
    ("O=C(CN(/C=C/C(=O)C(F)(F)F)c1ccc(Cl)cc1)c1ccc(F)cc1", "no (0)"),
    ("O=C1/C=C/[C@@H](O)[C@@H]2C[C@@H](O)C[C@H]2/C=C/CCC[C@H](CCc2ccccc2)O1", "yes (1)"),
    ("C#CC[C@@H]1C[C@]2(C)[C@H]3CC[C@@H]4[C@H]5C(C(=C)C)CC[C@]5(C(=O)NCCCCN)CC[C@@]4(C)[C@]3(C)CC[C@H]2C(C)(C)[C@H]1OC(C)=O (some centres undefined)", "no (0)"),
    ("c1ccc(CC(Cc2ccccc2)C2=NCCCN2)cc1", "no (0)"),
    ("COc1ccc(C(=O)c2sc3nc4c(cc3c2N)CCCC4)cc1OC", "no (0)"),
    ("NCCCCCn1c2c(c3ccccc3c1=O)C(=O)c1ccccc1-2", "yes (1)"),
]
